test: Metabolic stability test: liver microsomal stability assay; assay type: in vitro ADME, mouse; details: mouse liver microsomes 0.5 mg protein/mL, compound 1 µM, absence of NADPH
Starred links: 1 amine or outer side, 2 acyl side, 3 side chain; linkers in the order of their positions; H or OH if unused. Positions of bridges follow the written chain, without caps; N, C: chain ends. Non-standard residues stand in square brackets, D forms with d. Residues, ends and D or L forms follow the SMILES beside them. *: point of attachment. NMedβ3hAla = C[C@H](CC(=O)[*:2])N(C)[*:1]; NMeF = CN[C@@H](Cc1ccccc1)C(=O)O; NMeI = CC[C@H](C)[C@H](NC)C(=O)O; NMeT = CN[C@H](C(=O)O)[C@@H](C)O; NMeD = CN[C@@H](CC(=O)O)C(=O)O; NMeL = CN[C@@H](CC(C)C)C(=O)O; dNMeV = CN[C@@H](C(=O)O)C(C)C; NMeV = CN[C@H](C(=O)O)C(C)C; NMeAbu = CC[C@H](NC)C(=O)O; NMeA = CN[C@@H](C)C(=O)O; Piperidide = C1CCN(*)CC1; Abu = CC[C@H](N)C(=O)O; NBuGly = CCCCNCC(=O)O; Sar = CNCC(=O)O; tBu = CC(C)(C)*
observable: Mouse Hepatic Microsome CLh,int NADPH(-) (µL/min/mg Protein)
// return numeric value only (unit: µL/min/mg Protein, not printed)

The measured Mouse Hepatic Microsome CLh,int NADPH(-) associated with CC[C@@H]1NC(=O)[C@H]([C@@H](C)O)NC(=O)[C@H](Cc2ccccc2)N(C)C(=O)[C@H](CC(C)C)N(C)C(=O)[C@H](C(C)C)NC(=O)[C@H]([C@@H](C)CC)N(C)C(=O)[C@H]([C@@H](C)CC)NC(=O)[C@H](CC(C)C)N(C)C(=O)[C@H](C)N(C)C(=O)[C@H](C)NC(=O)C[C@@H](C)N(C)C(=O)[C@H](CC(C)C)N(C)C(=O)[C@H](C)N(C)C(=O)CN(C)C1=O [pd069] (cyclo(A[NMeA][NMeL]I[NMeI]V[NMeL][NMeF]T[Abu][Sar][NMeA][NMeL][NMedβ3hAla])) reads 20.5

The measured Mouse Hepatic Microsome CLh,int NADPH(-) associated with CC[C@H](C)[C@@H]1NC(=O)[C@H](CC(C)C)N(C)C(=O)CN(C)C(=O)C[C@@H](C(=O)N2CCCCC2)N(C)C(=O)CNC(=O)[C@H](C)N(C)C(=O)[C@H](C(C)C)N(C)C(=O)[C@H](C)N(C)C(=O)[C@H](Cc2ccccc2)N(C)C(=O)[C@H](CC(C)C)NC(=O)[C@H](Cc2ccccc2)N(C)C(=O)[C@H](C(C)C)NC(=O)[C@H](CC(C)C)N(C)C1=O [pd156] ([Sar][NMeL]I[NMeL]V[NMeF]L[NMeF][NMeA][NMeV][NMeA]G[NMeD]-Piperidide; lactam N-13) reads 23.7

The measured Mouse Hepatic Microsome CLh,int NADPH(-) associated with CCCCN1CC(=O)N(C)[C@@H](CC(C)C)C(=O)N[C@@H](COC(C)(C)C)C(=O)N(C)[C@@H](Cc2ccccc2)C(=O)N(C)[C@@H](C)C(=O)N(C)[C@@H](C(C)C)C(=O)N[C@H](C(=O)N2CCCCC2)CC(=O)N(C)[C@H](C(C)C)C(=O)N(C)[C@@H](Cc2ccccc2)C(=O)N2CCC[C@H]2C(=O)N(C)[C@@H](C(C)C)C(=O)N(C)[C@@H](CC(C)C)C(=O)N[C@@H]([C@@H](C)O)C1=O [pd123] ([dNMeV][NMeF]P[NMeV][NMeL]T[NBuGly][NMeL]S(tBu)[NMeF][NMeA][NMeV]D-Piperidide; lactam N-13) reads 36.0

The measured Mouse Hepatic Microsome CLh,int NADPH(-) associated with CC[C@H]1C(=O)N[C@@H](C(C)C)C(=O)N[C@H](C(=O)N2CCCCC2)CC(=O)N(C)[C@H](C(C)C)C(=O)N(C)[C@@H](Cc2ccccc2)C(=O)N[C@@H](CC(C)C)C(=O)N(C)CC(=O)N[C@@H](CC(C)C)C(=O)N[C@@H]([C@@H](C)O)C(=O)N(C)[C@@H](CC(C)C)C(=O)N(C)[C@@H](C(C)C)C(=O)N[C@@H](C)C(=O)N[C@@H](COC(C)(C)C)C(=O)N(C)[C@@H](Cc2ccccc2)C(=O)N1C [pd020] ([dNMeV][NMeF]L[Sar]LT[NMeL][NMeV]AS(tBu)[NMeF][NMeAbu]VD-Piperidide; lactam N-14) reads 24.9

The measured Mouse Hepatic Microsome CLh,int NADPH(-) associated with CCCCN1CC(=O)N[C@@H](CC(C)C)C(=O)N(C)[C@@H]([C@@H](C)CC)C(=O)N(C)[C@@H]([C@@H](C)O)C(=O)N(C)[C@@H](Cc2ccccc2)C(=O)N[C@@H]([C@@H](C)CC)C(=O)N(C)[C@@H](CC(C)C)C(=O)N[C@H](C(=O)N2CCCCC2)CC(=O)N(C)[C@@H](C)C(=O)N[C@@H](CC(C)C)C(=O)N(C)[C@@H](CC(C)C)C(=O)N(C)[C@@H](Cc2ccccc2)C(=O)N[C@@H](CC)C1=O [pd111] ([NMeA]L[NMeL][NMeF][Abu][NBuGly]L[NMeI][NMeT][NMeF]I[NMeL]D-Piperidide; lactam N-13) reads 28.4
